- Tested on: SK-MEL-2 melanoma
- ASSAY_NAME: NCI-60 one-dose screen, 48 h (100 = growth as untreated, 0 = no growth, -100 = all killed)
- STUDY_CONDITIONS: 10 µM
The panel holds about 83,000 compounds, 20% with a hit somewhere; the sample as a whole holds those more often.
# growth per entry
Give just the number in %; leave the unit off.

What value of measured growth is listed for CCNC1(NC#N)CCCCC1 ? 157

What value of measured growth is listed for Cc1ccc(C)c2c1sc1nc3n[nH]c(N)c3c(=N)n12 ? 96.1

What value of measured growth is listed for CCC1(C)OC(=O)NC1=O (configuration not stated) ? 106
